Quick list: MIC per entry.
system: Escherichia coli; experiment: In vitro antibacterial activity was tested for Escherichia coli H560; format: functional
MEASURED METRIC: MIC (µg/mL)

compound="CCNCC1CCCN(c2c(F)cc3c(=O)c(C(=O)O)cn(C4CC4)c3c2OCC)C1 (stereo not given)" measured_metric=MIC unit_tag=µg/mL measured_value=0.8
compound="COc1c(N2CCC(C)(CN)C2)c(F)c(N)c2c(=O)c(C(=O)O)cn(C3CC3)c12 (stereo not given)" measured_metric=MIC unit_tag=µg/mL measured_value=0.05
compound="COc1c(N2CCC(N)C2)c(F)cc2c(=O)c(C(=O)O)cn(C3CC3)c12 (stereo not given)" measured_metric=MIC unit_tag=µg/mL measured_value=0.013
compound="CCOc1c(N2CCC(N)C2)c(F)c(N)c2c(=O)c(C(=O)O)cn(C3CC3)c12 (stereo not given)" measured_metric=MIC unit_tag=µg/mL measured_value=0.05
compound="NCC1CCCN(c2c(F)cc3c(=O)c(C(=O)O)cn(C4CC4)c3c2F)C1 (stereo not given)" measured_metric=MIC unit_tag=µg/mL measured_value=0.05
compound=COc1c(N2CCNCC2)c(F)cc2c(=O)c(C(=O)O)cn(C3CC3)c12 measured_metric=MIC unit_tag=µg/mL measured_value=0.025
compound="NC1CCN(c2c(F)cc3c(=O)c(C(=O)O)cn(C4CC4)c3c2F)C1 (stereo not given)" measured_metric=MIC unit_tag=µg/mL measured_value=0.006
compound="NC1CCN(c2c(F)cc3c(=O)c(C(=O)O)cn(C4CC4)c3c2Cl)C1 (stereo not given)" measured_metric=MIC unit_tag=µg/mL measured_value=0.006
compound="NCC1CCCN(c2cc3c(cc2F)c(=O)c(C(=O)O)cn3C2CC2)C1 (stereo not given)" measured_metric=MIC unit_tag=µg/mL measured_value=0.4
compound=COc1c(N2CCC(CN)CC2)c(F)cc2c(=O)c(C(=O)O)cn(C3CC3)c12 measured_metric=MIC unit_tag=µg/mL measured_value=0.1
compound=COc1c(N2CCC(N)CC2)c(F)c(N)c2c(=O)c(C(=O)O)cn(C3CC3)c12 measured_metric=MIC unit_tag=µg/mL measured_value=0.05
compound=O=C(O)c1cn(C2CC2)c2cc(N3CCNCC3)c(F)cc2c1=O measured_metric=MIC unit_tag=µg/mL measured_value=0.025
compound="COc1c(N2CC(C)NC(C)C2)c(F)cc2c(=O)c(C(=O)O)cn(C3CC3)c12 (stereo not given)" measured_metric=MIC unit_tag=µg/mL measured_value=0.05
compound="COc1c(N2CCCC(N)C2)c(F)c(N)c2c(=O)c(C(=O)O)cn(C3CC3)c12 (stereo not given)" measured_metric=MIC unit_tag=µg/mL measured_value=0.05
compound="CCOc1c(N2CCCC(N)C2)c(F)cc2c(=O)c(C(=O)O)cn(C3CC3)c12 (stereo not given)" measured_metric=MIC unit_tag=µg/mL measured_value=0.2
compound="COc1c(N2CC(C)NC(C)C2)c(F)c(N)c2c(=O)c(C(=O)O)cn(C3CC3)c12 (stereo not given)" measured_metric=MIC unit_tag=µg/mL measured_value=0.1
compound="CCOc1c(N2CCCC(N)C2)c(F)c(N)c2c(=O)c(C(=O)O)cn(C3CC3)c12 (stereo not given)" measured_metric=MIC unit_tag=µg/mL measured_value=0.1
compound="COc1c(N2CCCC(CN)C2)c(F)c(N)c2c(=O)c(C(=O)O)cn(C3CC3)c12 (stereo not given)" measured_metric=MIC unit_tag=µg/mL measured_value=0.1
compound="COc1c(N2CCNC(C)C2)c(F)cc2c(=O)c(C(=O)O)cn(C3CC3)c12 (stereo not given)" measured_metric=MIC unit_tag=µg/mL measured_value=0.05
compound="NCC1CCCN(c2nc3c(cc2F)c(=O)c(C(=O)O)cn3C2CC2)C1 (stereo not given)" measured_metric=MIC unit_tag=µg/mL measured_value=0.4

----------
organism: Mus musculus; assay: Phototoxic skin reaction in depilated female CD-1 mice; format: toxicity, organism-based; conditions: in vivo
MEASURED METRIC: PTD50

compound="NC1CCN(c2c(F)cc3c(=O)c(C(=O)O)cn(C4CC4)c3c2Cl)C1 (centres undefined)" measured_value="23 mg"
compound=C[C@@H]1CN(c2cc3c(cc2F)c(=O)c(C(=O)O)cn3C2CC2)C[C@H](C)N1 measured_value="< 100 mg"
compound="NC1CCCN(c2cc3c(cc2F)c(=O)c(C(=O)O)cn3C2CC2)C1 (centres undefined)" measured_value="> 100 mg"
compound="CCOc1c(N2CCC(N)C2)c(F)c(N)c2c(=O)c(C(=O)O)cn(C3CC3)c12 (centres undefined)" measured_value="> 100 mg"
compound="NC1CCCN(c2c(F)cc3c(=O)c(C(=O)O)cn(C4CC4)c3c2F)C1 (centres undefined)" measured_value="55 mg"
compound="COc1c(N2CCCC(N)C2)c(F)c(N)c2c(=O)c(C(=O)O)cn(C3CC3)c12 (centres undefined)" measured_value="> 100 mg"
compound=C[C@@H]1CN(c2c(F)c(N)c3c(=O)c(C(=O)O)cn(C4CC4)c3c2F)C[C@H](C)N1 measured_value="28 mg"
compound="CC1(CN)CCN(c2c(F)c(N)c3c(=O)c(C(=O)O)cn(C4CC4)c3c2F)C1 (centres undefined)" measured_value="> 30 mg"
compound="COc1c(N2CCC(N)C2)c(F)cc2c(=O)c(C(=O)O)cn(C3CC3)c12 (centres undefined)" measured_value="> 100 mg"

----------
tested on: Escherichia coli; test: In vitro antibacterial activity was tested for Escherichia coli H560; type: functional
Quick list: MIC per entry.
MEASURED METRIC: MIC (µg/mL)

compound="CCNCC1CCN(c2c(F)cc3c(=O)c(C(=O)O)cn(C4CC4)c3c2OC)C1 (centres undefined)" experimental_target="Escherichia coli" measured_value=0.05
compound="NCC1CCCN(c2c(F)cc3c(=O)c(C(=O)O)cn(C4CC4)c3c2Cl)C1 (centres undefined)" experimental_target="Escherichia coli" measured_value=0.05
compound="COc1c(N2CCC(N)C2)c(F)c(N)c2c(=O)c(C(=O)O)cn(C3CC3)c12 (centres undefined)" experimental_target="Escherichia coli" measured_value=0.025
compound="NCC1CCCN(c2c(F)c(N)c3c(=O)c(C(=O)O)cn(C4CC4)c3c2F)C1 (centres undefined)" experimental_target="Escherichia coli" measured_value=0.025
compound="CCOc1c(N2CCC(C)(CN)C2)c(F)cc2c(=O)c(C(=O)O)cn(C3CC3)c12 (centres undefined)" experimental_target="Escherichia coli" measured_value=0.2
compound="CCOc1c(N2CCNC(C)C2)c(F)cc2c(=O)c(C(=O)O)cn(C3CC3)c12 (centres undefined)" experimental_target="Escherichia coli" measured_value=0.05
compound="COc1c(N2CCCC(CN)C2)c(F)cc2c(=O)c(C(=O)O)cn(C3CC3)c12 (centres undefined)" experimental_target="Escherichia coli" measured_value=0.1
compound="CCOc1c(N2CCCC(CN)C2)c(F)cc2c(=O)c(C(=O)O)cn(C3CC3)c12 (centres undefined)" experimental_target="Escherichia coli" measured_value=0.1
compound="COc1c(N2CCC(CN)C2)c(F)cc2c(=O)c(C(=O)O)cn(C3CC3)c12 (centres undefined)" experimental_target="Escherichia coli" measured_value=0.025

----------
organism: Mus musculus; assay: Phototoxic skin reaction in depilated female CD-1 mice; type: functional
Quick list: No effect dose per entry.
MEASURED METRIC: No effect dose (mg)

molecule="NC1CCN(c2cc3c(cc2F)c(=O)c(C(=O)O)cn3C2CC2)C1 (stereo not drawn)" measured_value=300
molecule="NC1CCN(c2c(F)cc3c(=O)c(C(=O)O)cn(C4CC4)c3c2F)C1 (stereo not drawn)" measured_value=3
molecule="COc1c(N2CC(C)NC(C)C2)c(F)cc2c(=O)c(C(=O)O)cn(C3CC3)c12 (stereo not drawn)" measured_value=100
molecule="NC1CCN(c2c(F)cc3c(=O)c(C(=O)O)cn(C4CC4)c3c2Cl)C1 (stereo not drawn) [CLINAFLOXACIN]" measured_value=18
molecule="C[C@@H]1CN(c2c(F)c(N)c3c(=O)c(C(=O)O)cn(C4CC4)c3c2F)C[C@H](C)N1 [SPARFLOXACIN]" measured_value=18
molecule="Nc1c(F)c(N2CCC(N)C2)c(F)c2c1c(=O)c(C(=O)O)cn2C1CC1 (stereo not drawn)" measured_value=30
molecule="COc1c(N2CCC(N)C2)c(F)cc2c(=O)c(C(=O)O)cn(C3CC3)c12 (stereo not drawn)" measured_value=100
molecule=C[C@@H]1CN(c2c(F)cc3c(=O)c(C(=O)O)cn(C4CC4)c3c2F)C[C@H](C)N1 measured_value=30

----------
test system: Escherichia coli; assay: In vitro antibacterial activity was tested for Escherichia coli Vogel; assay type: functional
MEASURED METRIC: MIC (µg/mL)

compound="NCC1CCCN(c2cc3c(cc2F)c(=O)c(C(=O)O)cn3C2CC2)C1 (centres undefined)" measured_value=0.4
compound="CCNCC1CCCN(c2c(F)cc3c(=O)c(C(=O)O)cn(C4CC4)c3c2OCC)C1 (centres undefined)" measured_value=0.8
compound="COc1c(N2CCCC(CN)C2)c(F)cc2c(=O)c(C(=O)O)cn(C3CC3)c12 (centres undefined)" measured_value=0.2
compound="Nc1c(F)c(N2CCC(N)C2)c(F)c2c1c(=O)c(C(=O)O)cn2C1CC1 (centres undefined)" measured_value=0.006
